Target: UniProt:Q13093
Sequence (Q13093 whole entry): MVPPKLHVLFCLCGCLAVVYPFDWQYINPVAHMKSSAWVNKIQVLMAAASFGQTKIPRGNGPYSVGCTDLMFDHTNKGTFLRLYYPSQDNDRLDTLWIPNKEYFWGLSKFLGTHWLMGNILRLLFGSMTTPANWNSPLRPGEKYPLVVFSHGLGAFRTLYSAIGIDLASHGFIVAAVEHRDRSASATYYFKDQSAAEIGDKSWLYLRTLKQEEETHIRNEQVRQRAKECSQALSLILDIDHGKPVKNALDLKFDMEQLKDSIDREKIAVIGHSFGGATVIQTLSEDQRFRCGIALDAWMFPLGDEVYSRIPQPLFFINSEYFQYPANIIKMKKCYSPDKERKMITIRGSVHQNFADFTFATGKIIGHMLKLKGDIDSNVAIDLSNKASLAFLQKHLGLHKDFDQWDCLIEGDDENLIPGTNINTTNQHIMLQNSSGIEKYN
Assembled from different publications: IC50 for UniProt:Q13093.

Worked cases, answers included:
> print(dat)
                    structure.smiles.string  metric  reported.value
1  Cn1cc(Cc2cn(CC(=O)N(CCN3CCCCC3)Cc3ccc(-c4ccc(C(F)(F)F)cc4)cc3)c(SCc3ccc(F)cc3)nc2=O)cn1    IC50         0.17 nM
2  CC(=O)c1ccc(CCCCCCCCSc2ncc(Cc3cccnc3)c(O)n2)cc1    IC50         2900 nM
3  Cn1cc(Cc2cn(CC(=O)N3CCN(c4ccc(Cl)c(Cl)c4)CC3)c(SCc3ccc(F)cc3)nc2=O)cn1    IC50           12 nM

Could you now consider this next compound?
IN: Look at this compound and give its reported IC50. O=C(CCCCCCCOc1ncc(Cc2cccnc2)c(=O)[nH]1)c1ccc(Cl)cc1
OUT: 64 nM

---

Sequence of the target: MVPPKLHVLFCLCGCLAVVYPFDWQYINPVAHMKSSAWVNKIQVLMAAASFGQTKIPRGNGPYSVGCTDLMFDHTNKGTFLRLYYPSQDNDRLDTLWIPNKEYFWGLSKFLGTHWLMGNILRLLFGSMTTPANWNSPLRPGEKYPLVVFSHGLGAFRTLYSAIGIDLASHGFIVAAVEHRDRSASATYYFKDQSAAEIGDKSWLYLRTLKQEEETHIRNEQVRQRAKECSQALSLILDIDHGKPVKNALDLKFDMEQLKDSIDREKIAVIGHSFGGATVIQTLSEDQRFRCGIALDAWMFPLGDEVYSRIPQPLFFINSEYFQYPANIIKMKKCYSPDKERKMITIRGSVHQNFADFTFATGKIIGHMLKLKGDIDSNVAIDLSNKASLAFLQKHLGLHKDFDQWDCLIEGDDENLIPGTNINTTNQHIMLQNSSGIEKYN
// merged dataset of IC50 values, system = the protein given by its sequence, multiple refs
Answers are plain numbers, in nM.

> print(dat)
                    structure.smiles.string  uom  reported.value
1  O=C(O)Cn1cc(Cc2cn(CC(=O)N3CCN(c4ccc(Cl)cc4)CC3)c(SCc3ccc(F)cc3)nc2=O)cnc1=O   nM              89
2         Oc1nc(SCc2ccc(F)cc2)ncc1Cc1cncnc1   nM             850
3  COc1ncc(Cc2cn(CC(=O)N(CC(=O)O)Cc3ccc(-c4ccc(Cl)cc4)cc3)c(SCc3ccc(F)cc3)nc2=O)cn1   nM               1

Now look at this entry.
IN: # returns recorded IC50 (system: the protein given by its sequence) for O=C(Cn1cc(Cc2cncnc2)c(=O)nc1SCc1ccc(F)cc1)N1CCN(S(=O)(=O)c2ccccc2)CC1
OUT: 260
